Biological target: native human ESRRG protein (Homo sapiens, UniProt P62508)
Sequence (P62508 1-458): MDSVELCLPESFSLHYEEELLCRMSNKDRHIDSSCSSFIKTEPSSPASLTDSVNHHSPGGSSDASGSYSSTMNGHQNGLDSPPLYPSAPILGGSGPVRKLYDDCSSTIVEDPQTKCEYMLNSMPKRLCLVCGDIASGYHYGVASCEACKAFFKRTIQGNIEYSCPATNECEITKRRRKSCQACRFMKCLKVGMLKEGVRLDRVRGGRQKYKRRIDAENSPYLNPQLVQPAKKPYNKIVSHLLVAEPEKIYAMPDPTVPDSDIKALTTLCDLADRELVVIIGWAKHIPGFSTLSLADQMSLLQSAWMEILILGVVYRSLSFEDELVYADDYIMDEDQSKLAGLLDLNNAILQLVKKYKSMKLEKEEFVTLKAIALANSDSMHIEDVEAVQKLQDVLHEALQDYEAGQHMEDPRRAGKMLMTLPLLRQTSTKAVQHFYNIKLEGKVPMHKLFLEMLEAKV
Experiment: peptide microarray screening for ESRRG binding (Iteration 1 and 2)
Conditions: Iteration 2 iterative screen; fluorescence intensity units
PROPERTY NAME: Sample B (Probe) Signal

The measured Sample B (Probe) Signal associated with WNSYPRND reads 2,198.94

Record summary for PWKLKQDP : reported Sample B (Probe) Signal = 1,339.15

FWKGHFDF yielded Sample B (Probe) Signal of 1,455.83

Query RLLHYGSY yields Sample B (Probe) Signal of 1,203.13

Given item LFKLKQND , the value recorded as its Sample B (Probe) Signal is 1,857.96

GET /value?item= PDSYPRWG &field=Sample B (Probe) Signal returns 5,591.60

Entry NNSYPRHR , Sample B (Probe) Signal reported as 3,422.79

Query NLLLKHPD yields Sample B (Probe) Signal of 2,297.98

For this sequence ( PFKLKQGN ), measured Sample B (Probe) Signal is 6,982.96

// sample HYKLKQHE , its Sample B (Probe) Signal was 1,296.65

// field: Sample B (Probe) Signal; key: FFKGHFKF ; value = 5,435.29

Summary for this sequence, HRSYPRVY : Sample B (Probe) Signal is 2,451.98

The recorded Sample B (Probe) Signal for HDNMYLNE is 7,243.75

Lab book: Sample B (Probe) Signal of GKSYPRHR noted as 3,049.48

Lookup result for NNNFSLHM ; measured Sample B (Probe) Signal: 4,374.19

Briefly, Sample B (Probe) Signal measured for EDSYPRDG : 5,021.94

Data point: WRSYPRRA ; Sample B (Probe) Signal = 2,611.56

For reference, reported Sample B (Probe) Signal for LILLQQLD stands at 1,251.12

Notebook: HRSYPRRG , Sample B (Probe) Signal read as 19,001.58

Query FFNFSLPA yields Sample B (Probe) Signal of 1,043.90

Entry TGKLKQDG , Sample B (Probe) Signal reported as 2,464.29

The sequence listed as YHNYLLHP has a reported Sample B (Probe) Signal of 1,309.00
